Value source: patent US12365687B2

Provide the reported Ki of each item.
- measured-on: human GABAA α2β2γ1 receptor (Homo sapiens (Human), UniProt P47869+Q8N1C3)
- assay-method-text: Radioligand binding assay for γ1-containing GABAA subtypes, [3H]RO7239181 competition (α2β2γ1)
- test-settings: Ki h-GABAA α2β2γ1, [3H]RO7239181 competition binding, human GABAA α2β2γ1
Give bare numbers, in nM.

Here is how some molecules turned out for Ki.
{"columns": ["molecule", "unit-name", "Ki"],
 "data": [
  ["CC1CN(C(=O)c2nc3n(n2)-c2ccc(Cl)c(Cl)c2C(c2ncccc2F)=N[C@H]3C)C1 [Example 87]", "nM", 55.2],
  ["COC1CN(C(=O)c2cn3c(n2)[C@H](C)N=C(c2ncccc2F)c2c-3ccc(C(F)(F)F)c2Cl)C1 [Example 145]", "nM", 93.1]
]}

Hello, I would appreciate it if you could give Ki for each entry below.
1. Cc1c(C(=O)NCCO)nc2n1-c1ccc(C(F)(F)F)c(Cl)c1C(c1ncccc1F)=N[C@H]2C [Example 154]
2. C[C@@H]1N=C(c2c(F)cccc2F)c2c(ccc(Cl)c2Cl)-n2nc(N3CCS(=O)(=O)CC3)nc21 [Example 52]
3. C[C@@H]1N=C(c2c(F)cccc2F)c2c(ccc(Cl)c2Cl)-n2nc(C(F)F)nc21 [Example 18]
4. C[C@@H]1N=C(c2c(F)cccc2F)c2c(ccc(Cl)c2Cl)-n2nc(C(=O)N3CC(OC(F)F)C3)nc21 [Example 31]
5. C[C@@H]1N=C(c2ncccc2F)c2c(ccc(C(F)(F)F)c2Cl)-n2cc(C(=O)NCCO)nc21 [Example 141]

Result:
[68.7, 12.4, 11.9, 17, 55.9]

* * *

- measured-on: human GABAA α2β2γ1 receptor (Homo sapiens (Human), UniProt P47869+Q8N1C3)
- assay-method-text: Radioligand binding assay for γ1-containing GABAA subtypes, [3H]RO7239181 competition (α2β2γ1)
- test-settings: Ki h-GABAA α2β2γ1, [3H]RO7239181 competition binding, human GABAA α2β2γ1
Provide the reported pKi of each item.
Answers are plain numbers, as −log10 of the molar value.

{"columns": ["compound", "measured-on", "pKi"],
 "data": [
  ["CC1CN(C(=O)c2nc3n(n2)-c2ccc(C(F)(F)F)c(Cl)c2C(c2ncccc2F)=N[C@H]3C)C1 [Example 135]", "human GABAA α2β2γ1 receptor (Homo sapiens (Human), UniProt P47869+Q8N1C3)", 7.30],
  ["[2H]C([2H])([2H])NC(=O)c1nc2n(n1)-c1ccc(Cl)c(Cl)c1C(c1c(F)cccc1F)=NC2 [Example 7]", "human GABAA α2β2γ1 receptor (Homo sapiens (Human), UniProt P47869+Q8N1C3)", 8.22],
  ["CCOC1CN(C(=O)c2cn3c(n2)[C@H](C)N=C(c2ncccc2F)c2c-3ccc(C(F)(F)F)c2Cl)C1 [Example 158]", "human GABAA α2β2γ1 receptor (Homo sapiens (Human), UniProt P47869+Q8N1C3)", 7.02]
]}

Hello, I would appreciate it if you could give pKi for each entry below.
1. C[C@@H]1N=C(c2c(F)cccc2F)c2c(ccc(Cl)c2Cl)-n2nc(C(=O)NCC(F)F)nc21 [Example 59]
2. C[C@@H]1N=C(c2c(F)cccc2F)c2c(ccc(C(F)(F)F)c2Cl)-n2nc(C(=O)N3CCC3)nc21 [Example 26]
3. C[C@@H]1N=C(c2c(F)cccc2F)c2c(ccc(Cl)c2Cl)-n2nc(C3CC3)nc21 [Example 49]
4. C[C@@H]1N=C(c2c(F)cccc2F)c2c(ccc(Cl)c2Cl)-n2nc(C(=O)N3CC(C#N)C3)nc21 [Example 41]

Result:
1: 8.15; 2: 8.07; 3: 7.80; 4: 8.48
